- protocol: isobaric coefficient of expansion
- measurement-context: 298.15 K; 25000 kPa; Liquid; DSC
Field: isobaric coefficient of expansion. Provide a value for each of the molecules that follow.

Data request: I'd like to know its isobaric coefficient of expansion. The molecule in question is `CCC[N+](=O)[O-]`
Data returned: 0.000977 1/K

Data request: I'd like to know its isobaric coefficient of expansion. The molecule in question is `C[N+](=O)[O-]`
Data returned: 0.00111 1/K

Data request: I'd like to know its isobaric coefficient of expansion. The molecule in question is `N#Cc1ccccc1`
Data returned: 0.000798 1/K

Data request: I'd like to know its isobaric coefficient of expansion. The molecule in question is `CC[N+](=O)[O-]`
Data returned: 0.00105 1/K

Data request: I'd like to know its isobaric coefficient of expansion. The molecule in question is `O=[N+]([O-])c1ccccc1`
Data returned: 0.000772 1/K

Data request: I'd like to know its isobaric coefficient of expansion. The molecule in question is `CCC#N`
Data returned: 0.00113 1/K

====

Field: isobaric coefficient of expansion. Provide a value for each of the compounds that follow.
- protocol: isobaric coefficient of expansion
- measurement-context: 298.15 K; 55000 kPa; Liquid; DSC

Data request: I'd like to know its isobaric coefficient of expansion. The compound in question is `C[N+](=O)[O-]`
Data returned: 0.000998 1/K

Data request: I'd like to know its isobaric coefficient of expansion. The compound in question is `CCC#N`
Data returned: 0.000993 1/K

Data request: I'd like to know its isobaric coefficient of expansion. The compound in question is `O=[N+]([O-])c1ccccc1`
Data returned: 0.000714 1/K

Data request: I'd like to know its isobaric coefficient of expansion. The compound in question is `CC[N+](=O)[O-]`
Data returned: 0.000941 1/K

Data request: I'd like to know its isobaric coefficient of expansion. The compound in question is `CCC[N+](=O)[O-]`
Data returned: 0.000875 1/K

====

- protocol: isobaric coefficient of expansion
- measurement-context: 348.15 K; 35000 kPa; Liquid; DSC
property: isobaric coefficient of expansion

Data request: I'd like to know its isobaric coefficient of expansion. The compound in question is CC[N+](=O)[O-] [nitroethane]
Data returned: 0.00104 1/K

Data request: I'd like to know its isobaric coefficient of expansion. The compound in question is CCC[N+](=O)[O-] [1-nitropropane]
Data returned: 0.000967 1/K

Data request: I'd like to know its isobaric coefficient of expansion. The compound in question is N#Cc1ccccc1 [benzonitrile]
Data returned: 0.000774 1/K

Data request: I'd like to know its isobaric coefficient of expansion. The compound in question is C[N+](=O)[O-] [nitromethane]
Data returned: 0.00112 1/K

Data request: I'd like to know its isobaric coefficient of expansion. The compound in question is CCC#N [propanenitrile]
Data returned: 0.00113 1/K

Data request: I'd like to know its isobaric coefficient of expansion. The compound in question is O=[N+]([O-])c1ccccc1 [nitrobenzene]
Data returned: 0.00075 1/K

====

Field: isobaric coefficient of expansion. Provide a value for each of the molecules that follow.
- protocol: isobaric coefficient of expansion
- measurement-context: 298.15 K; 10000 kPa; Liquid; DSC

Data request: I'd like to know its isobaric coefficient of expansion. The molecule in question is `O=[N+]([O-])c1ccccc1`
Data returned: 0.000808 1/K

Data request: I'd like to know its isobaric coefficient of expansion. The molecule in question is `N#Cc1ccccc1`
Data returned: 0.000832 1/K

Data request: I'd like to know its isobaric coefficient of expansion. The molecule in question is `CCC[N+](=O)[O-]`
Data returned: 0.00105 1/K

Data request: I'd like to know its isobaric coefficient of expansion. The molecule in question is `C[N+](=O)[O-]`
Data returned: 0.00118 1/K

Data request: I'd like to know its isobaric coefficient of expansion. The molecule in question is `CCC#N`
Data returned: 0.00123 1/K

Data request: I'd like to know its isobaric coefficient of expansion. The molecule in question is `CC[N+](=O)[O-]`
Data returned: 0.00112 1/K
